Target: XIAP BIR2-3 (Homo sapiens, UniProt P98170, C202A/C213G)
Construct: His-BIR2-3 (125-356, C202A/C213G, XIAP)
Sequence (P98170 125-356 C202A/C213G): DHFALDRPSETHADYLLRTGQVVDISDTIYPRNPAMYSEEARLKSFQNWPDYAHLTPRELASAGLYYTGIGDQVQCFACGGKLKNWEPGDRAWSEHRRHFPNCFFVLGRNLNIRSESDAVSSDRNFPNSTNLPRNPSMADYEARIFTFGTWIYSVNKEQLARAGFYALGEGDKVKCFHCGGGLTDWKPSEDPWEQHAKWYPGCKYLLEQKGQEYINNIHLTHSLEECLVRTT
Test: XIAP-BIR2-3 dimeric SMAC Peptide Homogeneous Time Resolved Fluorescence (HTRF) Assay
Format: binding
Conditions: 0.5 nM N-His-BIR2-3 (125-356, C202A/C213G, XIAP), 20 nM fluorescein labeled dimeric SMAC peptide; HTRF signal; read-out: XIAP BIR2-3 IC50
measurement.kind: IC50

q: Provide the documented IC50 with XIAP BIR2-3 (Homo sapiens, UniProt P98170, C202A/C213G) as the system for `CN[C@@H](C)C(=O)N[C@H](C(=O)N1C[C@@H](c2ccc3c(c2)CN(C(=O)[C@@H](NC(=O)[C@H](C)NC)C(C)(C)C)[C@H](C(=O)N[C@@H]2CCCc4ccccc42)C3)C[C@H]1C(=O)N[C@@H](Cc1ccccc1)C(=O)NS(=O)(=O)C1CC1)C(C)(C)C`
a: 1.2 nM

q: Provide value of IC50 for this record tested with XIAP BIR2-3 (Homo sapiens, UniProt P98170, C202A/C213G): `CC[C@H](NC)C(=O)N[C@H](C(=O)N1C[C@@H](NC(=O)c2ccc3c(c2)CN(C(=O)[C@@H](NC(=O)[C@H](C)NC)C(C)(C)C)[C@H](C(=O)N[C@@H]2CCCc4ccccc42)C3)C[C@H]1C(=O)N[C@@H]1CCCc2ccccc21)C(C)(C)C`
a: 5 nM

q: # returns recorded IC50 (system: XIAP BIR2-3 (Homo sapiens, UniProt P98170, C202A/C213G)) for `CN[C@@H](C)C(=O)N[C@H](C(=O)N1Cc2cc([C@H]3C[C@@H](C(=O)N[C@@H]4CCCc5ccccc54)N(C(=O)[C@@H](NC(=O)[C@H](C)NC)C(C)(C)C)C3)ccc2C[C@H]1C(=O)N[C@@H](Cc1ccccc1)C(=O)OC)C(C)(C)C`
a: 0.9 nM

q: Param readout= IC50; system= XIAP BIR2-3 (Homo sapiens, UniProt P98170, C202A/C213G); entry= `CN[C@@H](C)C(=O)N[C@H](C(=O)N1Cc2ccc(C(=O)N[C@H]3C[C@@H](C(=O)N[C@@H]4CCCc5ccccc54)N(C(=O)[C@@H](NC(=O)[C@H](C)NC)C(C)(C)C)C3)cc2C[C@@H]1C(=O)N[C@@H]1CCCc2ccccc21)C(C)(C)C` ; returns value.
a: 196 nM
